- assayedSystem: UniProtKB P21452
- Sequence (P21452 whole entry): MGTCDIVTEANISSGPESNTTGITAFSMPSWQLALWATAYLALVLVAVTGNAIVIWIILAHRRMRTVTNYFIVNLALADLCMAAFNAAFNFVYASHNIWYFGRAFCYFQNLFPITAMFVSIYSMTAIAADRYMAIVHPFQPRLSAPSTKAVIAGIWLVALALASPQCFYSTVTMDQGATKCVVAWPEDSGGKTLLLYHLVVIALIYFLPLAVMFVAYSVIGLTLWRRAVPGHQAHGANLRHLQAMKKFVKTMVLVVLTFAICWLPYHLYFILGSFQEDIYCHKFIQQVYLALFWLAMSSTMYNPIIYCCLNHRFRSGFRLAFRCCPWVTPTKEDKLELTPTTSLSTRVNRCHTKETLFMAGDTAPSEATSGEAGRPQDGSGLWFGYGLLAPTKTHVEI
- testDescription: [125I]-NKA radioligand competition binding to human recombinant NK2Rs (CHO-hNK2 membranes)
- conditionSummary: displacement of 0.1 nM [125I]-NKA, CHO-hNK2 membranes; read-out: hNK2 binding Ki
Where a SMILES comes first, the peptide text is derived from it.
propertyMeasured: pKi
pKi is a log-scale quantity: -log10 of the concentration expressed in molar.

>  <molecule>
CSCC[C@H](NC(=O)[C@H](CC(C)C)N(C)C(=O)CNC(=O)[C@@H](NC(=O)[C@H](Cc1ccccc1)NC(=O)[C@H](CCCNC(=N)N)NC(=O)[C@@H](N)CC(=O)O)C(C)C)C(N)=O [C, Asp-Arg-Phe-Val-Gly-(NMe-Leu)-Met-NH2] (HELM PEPTIDE1{D.R.F.V.G.[meL].M.[am]}$$$$V2.0; N-terminus assumed)

>  <pKi>
9.92

$$$$
>  <molecule>
CCCC[C@H](NC(=O)[C@H](CC(C)C)N(C)C(=O)CNC(=O)[C@@H](NC(=O)[C@H](Cc1ccccc1)NC(=O)[C@H](CCCNC(=N)N)NC(=O)[C@@H](N)CC(=O)O)C(C)C)C(N)=O [Compound B, Asp-Arg-Phe-Val-Gly-(NMe-Leu)-Nle-NH2] (HELM PEPTIDE1{D.R.F.V.G.[meL].[Nle].[am]}$$$$V2.0; N-terminus assumed)

>  <pKi>
9.23

$$$$
>  <molecule>
CCCC[C@H](NC(=O)[C@H](CC(C)C)NC(=O)CCNC(=O)[C@@H](NC(=O)[C@H](Cc1ccccc1)NC(=O)[C@H](CCCCN)NC(=O)[C@@H](N)CC(=O)O)C(C)C)C(N)=O [Compound G, Asp-Lys-Phe-Val-(β-Ala)-Leu-Nle-NH2] (HELM PEPTIDE1{D.K.F.V.[bAla].L.[Nle].[am]}$$$$V2.0; N-terminus assumed)

>  <pKi>
7.79

$$$$
>  <molecule>
CSCC[C@H](NC(=O)[C@H](CC(C)C)NC(=O)CCNC(=O)[C@@H](NC(=O)[C@H](Cc1ccccc1)NC(=O)[C@H](CCCNC(=N)N)NC(=O)[C@@H](N)CC(=O)O)C(C)C)C(N)=O [I, Asp-Arg-Phe-Val-(β-Ala)-Leu-Met-NH2] (HELM PEPTIDE1{D.R.F.V.[bAla].L.M.[am]}$$$$V2.0; N-terminus assumed)

>  <pKi>
9.06

$$$$

Challenge: Could you share which pKi value was measured for CCCC[C@H](NC(=O)[C@H](CC(C)C)NC(=O)CCNC(=O)[C@@H](NC(=O)[C@H](Cc1ccccc1)NC(=O)[C@H](CCCNC(=N)N)NC(=O)[C@@H](N)CC(=O)O)C(C)C)C(N)=O [K, Asp-Arg-Phe-Val-(β-Ala)-Leu-Nle-NH2] (HELM PEPTIDE1{D.R.F.V.[bAla].L.[Nle].[am]}$$$$V2.0; N-terminus assumed) ?
Response given: 8.16

Challenge: Could you share which pKi value was measured for CSCC[C@H](NC(=O)[C@H](CC(C)C)NC(=O)CCNC(=O)[C@@H](NC(=O)[C@H](Cc1ccccc1)NC(=O)[C@H](CCCCN)NC(=O)[C@@H](N)CC(=O)O)C(C)C)C(N)=O [Compound E, Asp-Lys-Phe-Val-(β-Ala)-Leu-Met-NH2] (HELM PEPTIDE1{D.K.F.V.[bAla].L.M.[am]}$$$$V2.0; N-terminus assumed) ?
Response given: 8.68
